# Tested on: SK-MEL-5
# method-summary: Growth inhibition of human SK-MEL-5 cells assessed as growth inhibition at 10 uM by sulforhodamine B assay
# Type: functional
# condition-summary: read-out: GI
inhibition of growth at 10 µM reference
Report only the number, with the unit % understood.

Solved entries (count: 4):
molecule: CC(C)=CC(=O)O[C@@H]1CC(C)(C)C[C@H]2C3=CC[C@@H]4[C@@]5(C)CCC(=O)C(C)(C)[C@@H]5CC[C@@]4(C)[C@]3(C)CC[C@@]12C(=O)O
inhibition of growth at 10 µM (%): 52.1
//
molecule: CC1(C)C[C@@H](O)[C@]2(C(=O)O)CC[C@]3(C)C(=CC[C@@H]4[C@@]5(C)C/C(=C\C=C\c6ccccc6)C(=O)C(C)(C)[C@@H]5CC[C@]43C)[C@@H]2C1
inhibition of growth at 10 µM (%): 26.3
//
molecule: CC1(C)C[C@@H](O)[C@]2(C(=O)O)CC[C@]3(C)C(=CC[C@@H]4[C@@]5(C)CCC(=O)C(C)(C)[C@@H]5CC[C@]43C)[C@@H]2C1
inhibition of growth at 10 µM (%): 12.2
//
molecule: C/C=C(/C)C(=O)O[C@@H]1CC(C)(C)C[C@H]2C3=CC[C@@H]4[C@@]5(C)CCC(=O)C(C)(C)[C@@H]5CC[C@@]4(C)[C@]3(C)CC[C@@]12C(=O)O [LANTADENE A]
inhibition of growth at 10 µM (%): 61.3

Turning now to a further record.
Exam item: // returns reported inhibition of growth at 10 µM for input CC(C)=CC(=O)O[C@@H]1CC(C)(C)C[C@H]2C3=CC[C@@H]4[C@@]5(C)CC[C@H](O)C(C)(C)[C@@H]5CC[C@@]4(C)[C@]3(C)CC[C@@]12C(=O)O [Reduced Lantadene B]
Marked response: 38.5
